Measurement Target: Ba/F3-FL-TYK2-P760L cells (Homo sapiens, UniProt P29597, P760L, cells depend on it)
Construct: BaF3-FL-T2P760L (nM)
Sequence (P29597 whole entry P760L): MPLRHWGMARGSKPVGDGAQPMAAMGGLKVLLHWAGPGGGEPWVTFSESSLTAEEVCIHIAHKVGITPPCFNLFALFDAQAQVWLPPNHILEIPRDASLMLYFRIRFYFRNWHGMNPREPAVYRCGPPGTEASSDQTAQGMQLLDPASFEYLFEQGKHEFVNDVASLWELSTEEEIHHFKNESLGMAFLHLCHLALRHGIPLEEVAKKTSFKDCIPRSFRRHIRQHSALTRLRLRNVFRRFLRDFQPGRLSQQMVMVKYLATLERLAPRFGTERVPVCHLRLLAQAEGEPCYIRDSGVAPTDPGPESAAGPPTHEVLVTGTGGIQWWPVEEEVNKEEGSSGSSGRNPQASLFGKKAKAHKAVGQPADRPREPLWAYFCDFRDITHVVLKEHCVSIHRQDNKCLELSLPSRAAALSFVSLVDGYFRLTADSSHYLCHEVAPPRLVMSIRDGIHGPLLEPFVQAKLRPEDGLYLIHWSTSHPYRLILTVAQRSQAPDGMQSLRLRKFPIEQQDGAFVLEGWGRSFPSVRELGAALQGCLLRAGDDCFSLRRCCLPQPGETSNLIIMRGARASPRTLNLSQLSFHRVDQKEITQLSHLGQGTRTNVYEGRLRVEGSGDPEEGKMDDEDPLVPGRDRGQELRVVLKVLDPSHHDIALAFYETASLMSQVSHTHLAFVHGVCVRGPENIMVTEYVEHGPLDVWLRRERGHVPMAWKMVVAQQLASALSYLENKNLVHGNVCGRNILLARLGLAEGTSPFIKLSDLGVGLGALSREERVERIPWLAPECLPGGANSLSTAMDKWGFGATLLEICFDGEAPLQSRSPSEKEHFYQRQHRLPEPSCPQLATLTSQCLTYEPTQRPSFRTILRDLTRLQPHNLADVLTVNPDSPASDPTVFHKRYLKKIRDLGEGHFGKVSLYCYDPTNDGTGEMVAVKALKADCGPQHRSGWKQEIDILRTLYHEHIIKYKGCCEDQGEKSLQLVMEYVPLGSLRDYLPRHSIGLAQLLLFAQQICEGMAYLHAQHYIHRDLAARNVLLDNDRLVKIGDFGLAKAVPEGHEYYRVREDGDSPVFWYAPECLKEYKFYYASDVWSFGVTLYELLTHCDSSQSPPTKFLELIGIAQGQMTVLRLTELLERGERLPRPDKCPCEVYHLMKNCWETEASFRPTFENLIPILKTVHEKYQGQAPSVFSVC
Assay Info: Anti-proliferative assay, Ba/F3-FL-TYK2-P760L cells (Cell-Titer Glo)
Assay type: cell-based
Study Conditions: 72 h, read-out: BaF3-FL-T2P760L IC50
For each of the compounds below, state its log10 GI50.
Note the log scale: values are log10 of GI50 expressed in nM.

Give one value of log10 GI50 per listed compound.
1. [2H]C([2H])([2H])NC(=O)c1nnc2cc1Nc1cc(cc(-c3ncn(C)n3)c1OC)CCC(O)c1nc(ccc1F)N2 (stereo not shown)
2. [2H]C([2H])([2H])NC(=O)c1nnc2cc1Nc1cc(cc(-c3ncn(C)n3)c1OC)COCc1cc(F)cc(n1)N2
3. [2H]C([2H])([2H])NC(=O)c1cnc(NC(=O)C2CC2)cc1Nc1csc2cnn(C(C)CC)c(=O)c12 (stereo not shown)
4. CCN1C(=O)Cc2ccc(Nc3cc(NC(=O)C4CC4)ncc3C(=O)NC)c(OC)c21
5. [2H]C([2H])([2H])NC(=O)c1cnc(NC(=O)C2CC2)cc1Nc1csc2cnn(C(C)COC)c(=O)c12 (stereo not shown)

Reply:
2.48
1.69
3.13
2.40
2.69

Batch request: log10 GI50 for each of the following compounds.
1. CCn1ccc2c(c(Nc3nc(Nc4ccc(F)cc4F)ncc3C(=O)NC)cn2C)c1=O
2. [2H]C([2H])([2H])NC(=O)c1cnc(NC(=O)C2CC2)cc1Nc1ccn2ncc(C(C)C#N)c2c1OC (single isomer, unassigned) [Example 251B]

Reply:
1. 2.87
2. 2.01

Ref: patent US20250115597A1
